Biological target: human M4 receptor (Homo sapiens, UniProt P08173)
Construct: expressed in transfected cells
Test: SPA GTP (GTPgS) binding curve shift assay, M4
Format: biochemical
Conditions: Emraclidine concentration […]
Protocol: Membranes were prepared for GTPgS binding assays from CHO-K1 cells stably expressing human M2 or human M4 receptors. Cells were grown in 5-layer cell culture flasks. Cells were washed with 50 mL of PBS and then dissociated with 0.05% trypsin. […] According to Promega guidelines, membrane protein concentration was determined by BCA protein assay (Promega, Madison, WI). […] Raw data for all assays was transmitted directly from plate readers into the Beacon database for processing. […]
Endpoint name: Emax at […] (%)

| Molecule | Tested target | Output unit | Emax at […] |
| --- | --- | --- | --- |
| CC1OC2(CS1)CN1CCC2CC1 (stereo not shown) [cevimeline, Cevimeline, reference compound] | human M4 receptor (Homo sapiens, UniProt P08173) | % | 10.6 |
| CCCCCCOc1nsnc1C1=CCCN(C)C1 [xanomeline, reference compound] | human M4 receptor (Homo sapiens, UniProt P08173) | % | 28.7 |

P: CCCCCOc1nsnc1C1=CCCCN1C
Q: CCCCCCCOc1nsnc1C1=CCCCN1C
Query: # returns the entry with the larger Emax at […]; inputs P and Q Refer to your chosen entry by its label in the reply.
Reply: Q

* * *

Molecular target: human M4 receptor (Homo sapiens, UniProt P08173)
Construct: expressed in transfected cells
Sequence (P08173 1-479): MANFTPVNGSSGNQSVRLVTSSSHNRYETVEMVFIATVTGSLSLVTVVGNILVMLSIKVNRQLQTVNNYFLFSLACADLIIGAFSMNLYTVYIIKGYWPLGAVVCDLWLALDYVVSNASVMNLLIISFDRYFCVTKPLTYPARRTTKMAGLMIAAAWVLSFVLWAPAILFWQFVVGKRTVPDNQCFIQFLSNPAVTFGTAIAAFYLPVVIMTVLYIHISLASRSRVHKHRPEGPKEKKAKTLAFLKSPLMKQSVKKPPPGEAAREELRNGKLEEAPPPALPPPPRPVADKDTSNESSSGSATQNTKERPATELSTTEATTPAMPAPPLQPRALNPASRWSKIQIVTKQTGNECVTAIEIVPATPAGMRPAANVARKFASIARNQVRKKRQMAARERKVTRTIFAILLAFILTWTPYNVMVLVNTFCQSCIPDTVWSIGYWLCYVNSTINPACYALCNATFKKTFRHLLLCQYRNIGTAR
Experiment: SPA GTP (GTPgS) binding curve shift assay, M4
Type: biochemical
Conditions: M4 PAM Emraclidine
Endpoint name: τ (agonist pharmacology)

Some solved cases for reference:
| Compound | Tested target | τ (agonist pharmacology) |
| --- | --- | --- |
| CCCCCCOc1nsnc1C1=CCCN(C)C1 [xanomeline, reference compound] | human M4 receptor (Homo sapiens, UniProt P08173) | 1.4 |
| CC1OC2(CS1)CN1CCC2CC1 (stereo not shown) [cevimeline, Cevimeline, reference compound] | human M4 receptor (Homo sapiens, UniProt P08173) | 0.4 |

1: CCCCCCCOc1nsnc1C1=CCCCN1C [KTX-593]
2: CCCCCOc1nsnc1C1=CCCCN1C [KTX-517]
Query: Given 1 and given 2 , which shows the smaller recorded τ (agonist pharmacology)? Refer to your chosen entry by its label in the reply.
Reply: 2

* * *

Target: human M1 receptor (Homo sapiens)
Construct: expressed in transfected cells
Sequence (P11229 whole entry): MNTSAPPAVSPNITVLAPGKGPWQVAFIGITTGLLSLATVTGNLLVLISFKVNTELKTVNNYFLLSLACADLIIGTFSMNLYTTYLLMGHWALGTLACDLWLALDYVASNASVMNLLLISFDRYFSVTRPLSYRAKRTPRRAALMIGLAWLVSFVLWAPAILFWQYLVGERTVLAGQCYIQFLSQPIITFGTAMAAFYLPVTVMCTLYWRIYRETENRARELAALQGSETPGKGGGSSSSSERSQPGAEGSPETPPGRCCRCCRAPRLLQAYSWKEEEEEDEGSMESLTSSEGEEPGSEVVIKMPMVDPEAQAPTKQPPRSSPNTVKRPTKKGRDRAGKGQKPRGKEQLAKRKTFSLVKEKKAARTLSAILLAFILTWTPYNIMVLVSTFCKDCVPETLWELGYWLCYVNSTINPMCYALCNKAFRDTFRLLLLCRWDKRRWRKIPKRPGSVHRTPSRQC
Test: HTRF IP-One curve shift assay, M1
Type: cell-based
Conditions: Emraclidine concentration 0 nM
Endpoint name: EC50 (nM)

| Compound | EC50 / nM |
| --- | --- |
| CCCCCOc1nsnc1C1=CCCCN1C | 7 |

A: CCCCCCCOc1nsnc1C1=CCCCN1C
B: CC1OC2(CS1)CN1CCC2CC1 (stereo not drawn) [cevimeline, Cevimeline, reference compound]
Query: Given A and given B , which shows the smaller recorded EC50? Refer to your chosen entry by its label in the reply.
Reply: A

* * *

Target: human M2 receptor (Homo sapiens)
Experiment: SPA GTP (GTPgS) binding curve shift assay, M2
Type: biochemical
Conditions: M2; MK-4710 concentration 41.2 nM; read-out: Emax
Endpoint name: Emax (%)

| Compound | Tested target | Emax [%] |
| --- | --- | --- |
| CC1OC2(CS1)CN1CCC2CC1 (stereo not shown) [cevimeline, Cevimeline, reference compound] | human M2 receptor (Homo sapiens) | 38.2 |
| CCCCCCCOc1nsnc1C1=CCCCN1C [KTX-593] | human M2 receptor (Homo sapiens) | 50.1 |
| CCCCCCOc1nsnc1C1=CCCN(C)C1 [xanomeline, reference compound] | human M2 receptor (Homo sapiens) | 65.3 |
| CCCCCOc1nsnc1C1=CCCCN1C [KTX-517] | human M2 receptor (Homo sapiens) | 53.2 |

* * *

Target: human M5 receptor (Homo sapiens, UniProt P08912)
Construct: expressed in transfected cells
Sequence (P08912 whole entry): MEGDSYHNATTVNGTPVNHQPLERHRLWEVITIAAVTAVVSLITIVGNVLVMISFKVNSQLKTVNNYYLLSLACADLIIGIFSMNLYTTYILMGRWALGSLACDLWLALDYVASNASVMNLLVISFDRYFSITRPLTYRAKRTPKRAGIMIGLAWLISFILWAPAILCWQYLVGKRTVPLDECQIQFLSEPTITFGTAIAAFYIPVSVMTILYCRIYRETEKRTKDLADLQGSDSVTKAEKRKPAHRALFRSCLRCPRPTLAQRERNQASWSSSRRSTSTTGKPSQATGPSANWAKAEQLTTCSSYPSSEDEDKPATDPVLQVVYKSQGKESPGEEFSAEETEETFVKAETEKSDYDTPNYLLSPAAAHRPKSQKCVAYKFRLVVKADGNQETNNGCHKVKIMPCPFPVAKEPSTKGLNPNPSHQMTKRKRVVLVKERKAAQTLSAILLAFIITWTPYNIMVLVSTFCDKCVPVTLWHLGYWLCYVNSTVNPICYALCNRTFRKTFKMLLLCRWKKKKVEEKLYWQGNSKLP
Experiment: HTRF IP-One curve shift assay, M5
Format: cell-based
Conditions: M5; MK-4710 concentration 0 nM
Endpoint name: EC50 (nM)

a: CC1OC2(CS1)CN1CCC2CC1 (stereo not drawn) [cevimeline, Cevimeline, reference compound]
b: CCCCCCCOc1nsnc1C1=CCCCN1C
Query: Given a and given b , which shows the smaller recorded EC50? Refer to your chosen entry by its label in the reply.
Reply: b
(b: 245 nM, a: 3720 nM)

* * *

Molecular target: human M3 receptor (Homo sapiens, UniProt P20309)
Construct: expressed in transfected cells
Sequence (P20309 whole entry): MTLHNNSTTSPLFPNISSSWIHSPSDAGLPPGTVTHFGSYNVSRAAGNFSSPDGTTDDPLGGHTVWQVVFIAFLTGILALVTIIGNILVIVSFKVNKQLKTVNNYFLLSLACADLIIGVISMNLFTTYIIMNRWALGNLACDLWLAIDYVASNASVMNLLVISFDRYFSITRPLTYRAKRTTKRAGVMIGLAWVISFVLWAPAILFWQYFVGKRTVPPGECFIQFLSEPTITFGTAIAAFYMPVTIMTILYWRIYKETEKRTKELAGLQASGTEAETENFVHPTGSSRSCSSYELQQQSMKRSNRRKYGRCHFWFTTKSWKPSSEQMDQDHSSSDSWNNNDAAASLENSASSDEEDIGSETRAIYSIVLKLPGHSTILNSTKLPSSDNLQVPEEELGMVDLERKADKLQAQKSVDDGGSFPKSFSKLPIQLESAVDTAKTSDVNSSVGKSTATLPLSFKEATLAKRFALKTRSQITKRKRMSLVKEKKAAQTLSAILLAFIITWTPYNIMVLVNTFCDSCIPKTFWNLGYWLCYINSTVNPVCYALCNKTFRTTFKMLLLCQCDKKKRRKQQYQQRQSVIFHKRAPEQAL
Assay: HTRF IP-One curve shift assay, M3
Type: cell-based
Conditions: Emraclidine concentration […]
Endpoint name: Emax at […] (%)

Some solved cases for reference:
| Molecule | Emax at […], % |
| --- | --- |
| CCCCCCOc1nsnc1C1=CCCN(C)C1 [xanomeline, reference compound] | 74.5 |
| CC1OC2(CS1)CN1CCC2CC1 (stereo not shown) [cevimeline, Cevimeline, reference compound] | 77.3 |

I: CCCCCOc1nsnc1C1=CCCCN1C
II: CCCCCCCOc1nsnc1C1=CCCCN1C
Query: Given I and given II , which shows the smaller recorded Emax at […]? Refer to your chosen entry by its label in the reply.
Reply: I
(I: 43%, II: 71.1%)

* * *

Target: human M2 receptor (Homo sapiens)
Experiment: SPA GTP (GTPgS) binding curve shift assay, M2
Assay type: biochemical
Details: M2; MK-4710 concentration 0 nM
Procedure: Membranes were prepared for GTPgS binding assays from CHO-K1 cells stably expressing human M2 or human M4 receptors. Cells were grown in 5-layer cell culture flasks. Cells were washed with 50 mL of PBS and then dissociated with 0.05% trypsin. […] According to Promega guidelines, membrane protein concentration was determined by BCA protein assay (Promega, Madison, WI). […] Raw data for all assays was transmitted directly from plate readers into the Beacon database for processing. […]
pEC50: −log10 of the molar value.
Endpoint name: pEC50

| Compound | pEC50 |
| --- | --- |
| CCCCCCCOc1nsnc1C1=CCCCN1C | 7.71 |

1: CCCCCOc1nsnc1C1=CCCCN1C
2: CC1OC2(CS1)CN1CCC2CC1 (stereo not drawn) [cevimeline, Cevimeline, reference compound]
Query: Given 1 and given 2 , which shows the smaller recorded pEC50? Refer to your chosen entry by its label in the reply.
Reply: 2

* * *

Target: human M2 receptor (Homo sapiens, UniProt P08172)
Sequence (P08172 1-466): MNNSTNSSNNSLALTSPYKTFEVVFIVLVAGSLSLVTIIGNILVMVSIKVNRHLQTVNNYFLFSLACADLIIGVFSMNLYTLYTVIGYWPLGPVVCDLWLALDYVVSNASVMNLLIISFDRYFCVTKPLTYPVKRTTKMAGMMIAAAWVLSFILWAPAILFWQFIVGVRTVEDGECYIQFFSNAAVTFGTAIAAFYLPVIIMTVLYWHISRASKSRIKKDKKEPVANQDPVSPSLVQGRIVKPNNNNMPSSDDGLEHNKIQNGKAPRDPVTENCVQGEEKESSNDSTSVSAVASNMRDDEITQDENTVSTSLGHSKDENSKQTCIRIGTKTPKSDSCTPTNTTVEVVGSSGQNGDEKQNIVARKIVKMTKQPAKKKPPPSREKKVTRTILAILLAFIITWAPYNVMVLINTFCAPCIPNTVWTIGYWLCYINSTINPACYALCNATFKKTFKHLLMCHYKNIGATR
Experiment: SPA GTP (GTPgS) binding curve shift assay, M2
Assay type: biochemical
Settings: M2; Emraclidine concentration 123 nM; read-out: Emax
Endpoint name: Emax (%)

| Molecule | Emax [%] |
| --- | --- |
| CC1OC2(CS1)CN1CCC2CC1 (stereo not shown) [cevimeline, Cevimeline, reference compound] | 51.8 |
| CCCCCCOc1nsnc1C1=CCCN(C)C1 [xanomeline, reference compound] | 49.8 |
| CCCCCOc1nsnc1C1=CCCCN1C [KTX-517] | 51.1 |
| CCCCCCCOc1nsnc1C1=CCCCN1C [KTX-593] | 52.2 |

* * *

Target: human M3 receptor (Homo sapiens)
Construct: expressed in transfected cells
Assay: HTRF IP-One curve shift assay, M3
Assay type: cell-based
Details: Emraclidine concentration 3330 nM, read-out: Emax
Endpoint name: Emax (%)

| Compound | Emax (%) |
| --- | --- |
| CC1OC2(CS1)CN1CCC2CC1 (stereo not shown) [cevimeline, Cevimeline, reference compound] | 83.9 |
| CCCCCCOc1nsnc1C1=CCCN(C)C1 [xanomeline, reference compound] | 80.3 |
| CCCCCOc1nsnc1C1=CCCCN1C | 59.6 |
| CCCCCCCOc1nsnc1C1=CCCCN1C | 73 |
